# Tested on: Ubiquitin-conjugating enzyme E2 T (Homo sapiens), Q9NPD8 [C86K,K91R,K95R]
# Sequence (whole entry): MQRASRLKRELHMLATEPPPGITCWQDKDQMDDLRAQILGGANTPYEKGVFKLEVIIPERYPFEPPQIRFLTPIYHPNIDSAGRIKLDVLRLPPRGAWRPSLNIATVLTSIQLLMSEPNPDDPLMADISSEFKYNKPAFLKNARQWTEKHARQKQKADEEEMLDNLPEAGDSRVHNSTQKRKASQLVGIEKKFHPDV
# ASSAY: Binding affinity to N-terminally 6xHis-Smt3 tagged human Ube2T C86K/K91R/K95R mutant expressed in Escherichia coli by DSF method
Calls of active or inactive are those of the source. The calls are words filed in the database; no cut-off is given here.
MEASUREMENT NAME: Activity

compound=N=C(N)c1ccc(N2CCCCC2)nc1 measured_result=inactive
compound="CC1CCN(c2ccc(C(=N)N)cn2)C1 (stereo unspecified)" measured_result=inactive
compound=Cc1cc(C)n(-c2ccc(C(=N)N)cn2)n1 measured_result="Dose-dependent effect"
compound=N=C(N)c1ccc(-n2cccn2)nc1 measured_result="Dose-dependent effect"
compound="CC1CCCN1c1ccc(C(=N)N)cn1 (stereo unspecified)" measured_result=inactive
compound=N=C(N)c1ccc(N2CCCC2)nc1 measured_result="Dose-dependent effect"

The reported numbers originate from ChEMBL document CHEMBL4017530.
